tested on: 454973-116-R2-J3-PDC spheroids, percent test/control viability; test: Anticancer human tumor 454973-116-R2-J3-PDC patient-derived pancreatic carcinoma cell line growth inhibition [CLK]; conditions: second compound 0.1 µM; first compound 1 µM; spheroids with HUVEC and MSC; active = viability on the fitted dose curve at most 10% of control; inactive = the rest;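 also: spheroids exposed to compounds for 7 days before readout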
Classes used: active, inactive

# compound, assigned class
data = [
    ("CC(=O)O[C@H]1C(=O)[C@@]2(C)[C@H]([C@H](OC(=O)c3ccccc3)[C@]3(O)C[C@H](OC(=O)[C@H](O)[C@@H](NC(=O)c4ccccc4)c4ccccc4)C(C)=C1C3(C)C)[C@]1(OC(C)=O)CO[C@@H]1C[C@@H]2O + CN1CCN(c2cc(C(=O)Nc3cc4cc(-c5cnn(C)c5)ccc4cn3)ccn2)CC1", "active"),
    ("CC(=O)O[C@H]1C(=O)[C@@]2(C)[C@H]([C@H](OC(=O)c3ccccc3)[C@]3(O)C[C@H](OC(=O)[C@H](O)[C@@H](NC(=O)c4ccccc4)c4ccccc4)C(C)=C1C3(C)C)[C@]1(OC(C)=O)CO[C@@H]1C[C@@H]2O + CNC(=O)c1ccc(Nc2nc(OC3CCCC3)c3c(-c4ccc5nc(C)oc5c4)c[nH]c3n2)c(OC)c1", "active"),
    ("O=C(c1cc(Cc2n[nH]c(=O)c3ccccc23)ccc1F)N1CCN(C(=O)C2CC2)CC1 + CN1CCN(c2cc(C(=O)Nc3cc4cc(-c5cnn(C)c5)ccc4cn3)ccn2)CC1", "inactive"),
    ("C#Cc1c(F)ccc2cc(O)cc(-c3ncc4c(N5CC6CCC(C5)N6)nc(OCC56CCCN5CC(F)C6)nc4c3F)c12 (centres undefined) + CN1CCN(c2cc(C(=O)Nc3cc4cc(-c5cnn(C)c5)ccc4cn3)ccn2)CC1", "inactive"),
]

Data provenance: PubChem BioAssay AID2060618
